Values were extracted from ChEMBL document CHEMBL1201862.

tested on: SNB-78; assay: NCI tumour cell line growth inhibition, 48 h
Calls of active or inactive are those of the source. Cut-off read from the data, not from the text of the source: active = GI50 up to about 1.1 µM and inactive = higher.
READOUT: GI50

The cases that follow already have their GI50 on record.
> print(dat)
                                   compound  subject.of.test           meas.value
1  Nc1nc(SCc2ccc([N+](=O)[O-])cc2)nc2c1ncn2C1OC(CO)C(O)C1O (stereo unspecified)           SNB-78  > 100 µM (inactive)
2       CC1=Nn2c(nnc2-c2ccccc2Cl)NC(C)(C)C1           SNB-78  > 100 µM (inactive)

# GI50 lookup, item CC(c1ccccc1)N1CC(C)(c2ccccc2)N(O)C(c2ccccc2)C1C (stereo unspecified)
15.1 µM (inactive)

# GI50 lookup, item COc1ccc(N2C(=O)c3c(c4[nH]c5ccccc5c4c4ccc(C(C)(C)C)cc34)C2=O)cc1
25.7 µM (inactive)

# GI50 lookup, item CCOC(OC1=C(C#N)CCC1)C(CC)[Se]c1ccccc1 (stereo unspecified)
29.3 µM (inactive)

# GI50 lookup, item COC(=O)C(C(=O)C(=O)Nc1cccc(O)c1)c1nc2ccc(Cl)cc2nc1O (stereo unspecified)
> 100 µM (inactive)

# GI50 lookup, item CC#CC(=O)Nc1ccccc1CC(c1c[nH]c2ccccc12)c1c[nH]c2ccccc12
11.6 µM (inactive)

# GI50 lookup, item O=S(O)CCCCSSCCCCS(=O)(=O)S
35.1 µM (inactive)

# GI50 lookup, item CN(C)C(=N)NC(N)=S
> 100 µM (inactive)

# GI50 lookup, item CCCCCCC1=NOC(C(c2cc[nH]c2)N(C)[C@H](C(=O)OC)C(C)C)C1 (stereo partly specified)
21.3 µM (inactive)

# GI50 lookup, item O=C(NC(=O)c1c(F)cccc1F)Nc1cccc(Oc2ncc(Cl)cn2)c1
> 100 µM (inactive)

---

tested on: MCF7; assay: NCI tumour cell line growth inhibition, 48 h
Calls of active or inactive are those of the source. Rule as the data show it: active = GI50 up to about 1.1 µM and inactive = higher.
Mark one answer only. Choices: YES for active, NO for inactive

> print(dat)
                                   molecule  label.class
1  O=C1c2ccccc2C(=O)N1CCCCNOCCCN1C(=O)c2ccccc2C1=O           NO
2     CC(=O)NC(CS)C(=O)O (stereo not drawn)           NO

Hi, do you know how CN(C)CCNC(=O)c1ccc(Cl)c2ccc(-c3ccccc3)nc12 came out in this test?
NO

---

tested on: SW-620; experiment: NCI tumour cell line growth inhibition, 48 h
Calls of active or inactive are those of the source. Rule as the data show it: active = GI50 up to about 1.1 µM and inactive = higher.
Mark one answer only. Choices: active, inactive

> print(dat)
                                   compound  subject.of.test  label.class
1  COc1cc2c(c(OC)c1OC)-c1ccc(SC)c(=O)cc1C(CO)C2 (stereo unspecified)           SW-620       active
2                     Cc1ccc2c(=O)[nH]sc2c1           SW-620     inactive
3                O/N=C/[C@H]1COC2(CCCCC2)O1           SW-620     inactive
4  Nc1ccn(C2OC(C(O)CO)C(O)C2O)c(=O)n1 (stereo unspecified)           SW-620     inactive
5    O=S(=O)(O)C1=C2Sc3ccccc3N=C2c2ccccc2C1           SW-620     inactive

Hi, do you know how CC1CC/C(=C\c2ccc(N(C)C)cc2)C(=O)/C1=C/c1ccc(N(C)C)cc1 (stereo unspecified) came out in this test?
inactive

Hi, do you know how O=C(O)c1c(CC(Cc2ccc3c(c2)CCCC3)C(=O)O)ccc2c1CCCC2 (stereo unspecified) came out in this test?
inactive

Hi, do you know how C=C1C(=O)O[C@H]2C1C[C@H](O)/C(C)=C/CC[C@@]1(C)O[C@H]21 (stereo partly specified) came out in this test?
inactive

Hi, do you know how COc1ccc(-c2oc3cc(OC)c(OC)c(OC)c3c(=O)c2OC)cc1OC came out in this test?
inactive

Hi, do you know how CCOC(=O)c1cn(C)nc1N/C(C)=C\C(=O)c1ccccc1 came out in this test?
inactive

Hi, do you know how CC1(C)C=[N+]([O-])C(C)(C)N1 came out in this test?
inactive
